The measured values listed here are drawn from ChEMBL document CHEMBL1127916.

- Measured Target: Vitamin D-binding protein (Rattus norvegicus)
- Method Summary: Relative binding potency for rat vitamin D binding protein (DBP) by competitive displacement with [3H]1-alpha,25(OH)2D3
Observed Property: Relative binding potency
# answer = number (no unit)

Illustrative cases are given below, each with its answer.
Compound	Relative binding potency
C=C1/C(=C\C=C2/CCC[C@@]3(C)C2CC[C@@H]3[C@H](C)OCCC(C)(C)O)C[C@@H](O)C[C@H]1O (stereo partly specified)	0.007
C=C1/C(=C\C=C2/CCC[C@@]3(C)C2CC[C@@H]3[C@H](C)CCCC(C)(C)O)C[C@@H](O)C[C@H]1O (stereo partly specified)	2.9
C=C1/C(=C\C=C2/CCC[C@@]3(C)C2CC[C@@H]3[C@H](C)CCCC(C)(C)O)C[C@@H](O)[C@@H](OCCCO)[C@@H]1O (stereo partly specified)	4.1
C=C1/C(=C\C=C2/CCC[C@]3(C)[C@@H]([C@H](C)OCCC(C)(C)O)CC[C@@H]23)C[C@@H](O)C[C@@H]1O	0.002

Request: Report Relative binding potency, nothing else, for this compound: C=C1/C(=C\C=C2/CCC[C@@]3(C)C2CC[C@@H]3[C@H](C)CCCC(C)(C)O)C[C@@H](O)[C@@H](OCCCO)[C@H]1O (stereo partly specified)
Response: 6.7

Request: Indicate the recorded Relative binding potency value for this compound: C=C1/C(=C\C=C2/CCC[C@]3(C)[C@@H]([C@H](C)CCCC(C)(C)O)CC[C@@H]23)C[C@@H](O)C[C@@H]1O
Response: 1

====

Here, each record is paired with measured Relative binding potency data.
- Measured Target: Vitamin D3 receptor (Bos taurus) (UniProt Q28037)
- Sequence (whole entry): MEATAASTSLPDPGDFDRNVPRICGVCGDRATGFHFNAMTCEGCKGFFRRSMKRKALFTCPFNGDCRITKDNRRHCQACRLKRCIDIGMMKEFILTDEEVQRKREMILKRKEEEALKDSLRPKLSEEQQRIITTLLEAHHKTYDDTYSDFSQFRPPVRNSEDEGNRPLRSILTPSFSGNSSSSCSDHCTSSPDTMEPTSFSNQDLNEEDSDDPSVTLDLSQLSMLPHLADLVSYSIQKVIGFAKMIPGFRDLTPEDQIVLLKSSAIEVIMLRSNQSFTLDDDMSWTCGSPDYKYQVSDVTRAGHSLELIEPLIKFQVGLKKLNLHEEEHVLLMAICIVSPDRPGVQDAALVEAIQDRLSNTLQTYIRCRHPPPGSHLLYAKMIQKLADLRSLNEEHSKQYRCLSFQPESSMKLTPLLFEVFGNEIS
- Method Summary: Relative binding for bovine thymus vitamin D receptor (VDR) by displacement with [3H]1-alpha,25(OH)2D3
Kindly provide the number alone.

Molecule	Relative binding potency
C=C1/C(=C\C=C2/CCC[C@]3(C)[C@@H]([C@H](C)CCCC(C)(C)O)CC[C@@H]23)C[C@@H](O)C[C@@H]1O	1
C=C1/C(=C\C=C2/CCC[C@@]3(C)C2CC[C@@H]3[C@H](C)CCCC(C)(C)O)C[C@@H](O)[C@@H](OCCCO)[C@H]1O (stereo partly specified)	0.003
C=C1/C(=C\C=C2/CCC[C@@]3(C)C2CC[C@@H]3[C@H](C)CCCC(C)(C)O)C[C@@H](O)[C@@H](OCCCO)[C@@H]1O (stereo partly specified)	0.7
C=C1/C(=C\C=C2/CCC[C@@]3(C)C2CC[C@@H]3[C@H](C)OCCC(C)(C)O)C[C@@H](O)C[C@H]1O (stereo partly specified)	0.007
C=C1/C(=C\C=C2/CCC[C@]3(C)[C@@H]([C@H](C)OCCC(C)(C)O)CC[C@@H]23)C[C@@H](O)C[C@@H]1O	0.6

Moving on to another molecule below.
Request: Provide measured Relative binding potency value, entry: C=C1/C(=C\C=C2/CCC[C@@]3(C)C2CC[C@@H]3[C@H](C)CCCC(C)(C)O)C[C@@H](O)C[C@H]1O (stereo partly specified)
Response: 0.2
